Give interaction score for every item shown.
- measured-target: T1, P10-AA
- T1 chain: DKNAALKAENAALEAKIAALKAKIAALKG
- protocol-text: two-hybrid library CCmax;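 further: natural log of median RNA to DNA barcode read ratio; higher means stronger binding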
- measurement-parameters: mean of both orientations
Answers are plain numbers.

Just so you know, measured interaction score for DENAALEAKNAALKAKIAALKAKIAALKG [O2-AA] came out at 1.33

Just so you know, measured interaction score for DEIAALEAKNAALKAELAAIEAKIAAKKG [AP5-AA] came out at 1.37

Just so you know, measured interaction score for DKNAALKAKIAALKAKNAALKAEIAALEG [O13-AA] came out at -1.54

Just so you know, measured interaction score for DELAAIEAEIAALEAKKAALKAKNAALKG [AP3-AA] came out at -0.602

Just so you know, measured interaction score for DELAANEAELAAEEAKLAAAKAKAAALKG [AP4-AA] came out at -1.25

Consider the record given below.
Just so you know, measured interaction score for DKIAALKAEIAALEAKNAALKAKNAALKG [O4-AA] came out at -0.869
